Would you mind telling me the reported protein stability index of each entry?
B1: EHMT1 (parent)
chain: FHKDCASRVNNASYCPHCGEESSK

Variants of: B1
Test: protein stability index of a GFP-peptide fusion (GPS, HEK-293T) (PSI 1-6); higher = more stable;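 also: lentivirally expressed fusions sorted by FACS into six bins by GFP to DsRed ratio, PSI derived from sequencing read proportions per bin multiplied by bin number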
Settings: c terminus: a fixed tail appended
Give the value as a plain number.

Query :: Fill blank: measured protein stability index of the variant A6M is ____.
Result :: 3.07

Query :: Fill blank: measured protein stability index of the variant R8P is ____.
Result :: 3.37

Query :: Fill blank: measured protein stability index of the variant N10R is ____.
Result :: 2.99

Query :: Fill blank: measured protein stability index of the variant N10M is ____.
Result :: 2.98

Query :: Fill blank: measured protein stability index of the variant A12E is ____.
Result :: 3.81

Query :: Fill blank: measured protein stability index of the variant K3R is ____.
Result :: 2.57

Query :: Fill blank: measured protein stability index of the variant F1P is ____.
Result :: 4.43

Query :: Fill blank: measured protein stability index of the variant S7F is ____.
Result :: 2.16

Query :: Fill blank: measured protein stability index of the variant C18H is ____.
Result :: 3.62

Query :: Fill blank: measured protein stability index of the variant H2S is ____.
Result :: 3.1

Query :: Fill blank: measured protein stability index of the variant C5K is ____.
Result :: 2.13

Query :: Fill blank: measured protein stability index of the variant H2P is ____.
Result :: 3.37

Query :: Fill blank: measured protein stability index of the variant D4W is ____.
Result :: 1.96

Query :: Fill blank: measured protein stability index of the variant P16N is ____.
Result :: 3.29

Query :: Fill blank: measured protein stability index of the variant G19P is ____.
Result :: 3.75

Query :: Fill blank: measured protein stability index of the variant G19H is ____.
Result :: 3.36

Query :: Fill blank: measured protein stability index of the variant K24E is ____.
Result :: 3.11

Query :: Fill blank: measured protein stability index of the variant S13V is ____.
Result :: 2.76

Query :: Fill blank: measured protein stability index of the variant V9D is ____.
Result :: 3.94

Query :: Fill blank: measured protein stability index of the variant V9C is ____.
Result :: 4.31

Query :: Fill blank: measured protein stability index of the variant S7W is ____.
Result :: 2.76

Query :: Fill blank: measured protein stability index of the variant Y14R is ____.
Result :: 3.52
